B1: TPR t1 (parent)
chain: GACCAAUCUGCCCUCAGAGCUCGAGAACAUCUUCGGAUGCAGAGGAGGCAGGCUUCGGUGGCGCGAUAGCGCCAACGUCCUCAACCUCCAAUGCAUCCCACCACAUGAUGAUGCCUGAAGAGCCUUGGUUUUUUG

variants of: B1; assay: polymerase ribozyme fitness, log enrichment relative to wild type (log ratio); higher = more active; in vitro selection for triplet polymerase activity
Parameter measured: polymerase ribozyme fitness (log ratio)

Recorded polymerase ribozyme fitness (log ratio), per entry:
1. GACCAACCUAGCCUCAGAGCUCGAGAACAUCUUCGGAUGCAGAGGAGGCAGGCUUCGGUGGCGCGAUAGCGCCAACGUCCUCAACCUCCAUUGCAUCCCACCACAUGAUGGUGCCUGAAGAGCCUUGGUUUUUUG [U7C G10A C11G A91U A111G] ... -1.99
2. GACCAAACUGCCUUCAGACCUCGAGAACAUCUUCGGAUGCAGAGGAGGCAGGCUUCGGUGGCGCGAUAGCGCCAACGUCCUCAACCUCCAAUGCAUCCCACCACAUGAUGAUUCCUGAAGAGCCUUGGUUUUUUG [U7A C13U G19C G113U] ... -1.96
3. GACCAUUCUUCCCUCAGAGCUCGAGAACAUCUUCGGAUGCAGAGGAGGCAGGUUUCGGUGGCGCGAUAGCGCCAACGUCCUCAACCUCCAAUGCAUCCCACCACAUGAUGAUGCCUGAAGACACAUGGUUUUUUG [A6U G10U C53U G122C C123A U125A] ... -0.333

q: Output polymerase ribozyme fitness (log ratio) of GACCAAUCUGCCAUCAGAGCUCGAGAACAUCUUCGGAUGAAGAGGAGGCAGGCUUUGGUGGCGCGAUAGCGCCAACGUCCUCAACCUCCAAUGCAUCCCACCACAUGAUGAUGCCUGAAGAGCCUUGGUUUUUUG [C13A C40A C56U]
a: -2.79

q: Output polymerase ribozyme fitness (log ratio) of GACCAAUCUGCCCUCAGAGCUCGAGGACAUCUUCGGAUGCAGAGGAGGCAGGCUUCGGUGGCGCGAUAGCGCCAACGUCCUCAACCUCCAAUGCAUCCCACCACAUGAUGAUGUCUGAAGAGCCUUGGUUUUUUG [A26G C114U]
a: -3.27

q: Output polymerase ribozyme fitness (log ratio) of GACCAAUCUGCCCUCAGAGCUCGAGAACAUCUUCGGAUGCAGAGGAGGCAGGCUUCGGUGGCGCGCUAGCGCCCACGUCCUCAACCUCCAAUGCAUCCCACCACAUGAUGCUGCCUGAAGAGCCUUGGUUUUUUG [A66C A74C A111C]
a: -2.24

q: Output polymerase ribozyme fitness (log ratio) of GACCAAUCUGCCGUCAGAGCUCGAGAACAUCUUCGGAUGCAGAGGAGGCAGGCUUCGGUGGCGCGAUAGCGUCAACGUCCUCAACCUCCAAUGCAUCCCACCACAUGAUGAUGCCUGAAGAGCCUUGGUUUUUUG [C13G C72U]
a: -1.8

q: Output polymerase ribozyme fitness (log ratio) of GACCAAUCUGCCCUCAGAGCUCGAGAACAUCUUCGGAUGCAGAGGAGGCAGGCUUCUGUGGAGCGAUAGCGCCAACGUCCUCAACCUCCAAUGCAUCCCACCACAUGAUGAUGCCUUAAGAGCCUUGGUUUUUUG [G57U C62A G117U]
a: -5.4

q: Output polymerase ribozyme fitness (log ratio) of GACCAAUCUGCACUCAGAGCUCGAGAACAUCUUCGGAUGCAGAGGAGGCAGGCUUCGGUGGCGCGAUAGCGCCAACGUCCUCAACCUCCAAUGCAUCCCACCACGUGAUGAUGCCUGAAGAGCUUUGGUUUUUUG [C12A A105G C124U]
a: -0.99

q: Output polymerase ribozyme fitness (log ratio) of GACCAAUCUGCCCUCAGAGCUCGAGAACAUCUUCGAAUGCAGAGGAGGCAGGCUUCGGUGGUGCGAUAGCGUCAACGUCCUCAACCUCCAAUGCAUCCCACCACAUGAUGAUGCCUGAAGAGCCUUGGUUUUUUG [G36A C62U C72U]
a: -0.886

q: Output polymerase ribozyme fitness (log ratio) of GACCAAUCUGCCCUCAGAACUCGAGAACAUCUUCGGAUGCAGAGGAGGCAGGCUUCGGUGGCGCGAUAGCGCCAACGUCCUCAACCUCCAAUGCAUCCCACAACAUGAUGAUGCCUGAAGAGCCUUGGUUUUUUG [G19A C102A]
a: -5.35

Measured values drawn from the RNAGym collection of RNA variant scans (doi:10.1073/pnas.2313332121) for this set.
